# Tested On: EGFR (Homo sapiens, UniProt P00533)
# Test Name: EGFR signaling (pEGFR Tyr1068/total EGFR MSD) in A431 cells
# Type: cell-based
# Set-up: endogenous in cells; host or cells: A431, N87
# Particulars: ratio A431 pEGFR EC50 to HEK YVMA pHER2 EC50

{"Compound": "Cc1ccc(Oc2ccc(Nc3ncnc4sc5c(c34)CCN(C(=O)/C=C/CN3CC4(CCCC4)C3)C5)cc2C)cn1 [Compound 123]", "Selectivity A431 EC50/HEKYVMA EC50": "D (D: ≥ 5 and < 10)"}
{"Compound": "Cc1ccc(Oc2ccc(Nc3ncnc4sc5c(c34)C(C)CN(C(=O)C=CCN3CCOCC3)C5)cc2C)cn1 (single isomer, unassigned) [Compound 177]", "Selectivity A431 EC50/HEKYVMA EC50": "D (D: ≥ 5 and < 10)"}

====

Listed below: pEC50 values for each entry.
# Tested On: HER2VC (G776delinsVC) (Homo sapiens, UniProt P04626, G776C/INS775V)
# Construct: NCI-H1781 cells which endogenously expresses a HER2 mutant protein; endogenous in cells
# Sequence (P04626 with tags, fused parts or gaps INS775V/G776C): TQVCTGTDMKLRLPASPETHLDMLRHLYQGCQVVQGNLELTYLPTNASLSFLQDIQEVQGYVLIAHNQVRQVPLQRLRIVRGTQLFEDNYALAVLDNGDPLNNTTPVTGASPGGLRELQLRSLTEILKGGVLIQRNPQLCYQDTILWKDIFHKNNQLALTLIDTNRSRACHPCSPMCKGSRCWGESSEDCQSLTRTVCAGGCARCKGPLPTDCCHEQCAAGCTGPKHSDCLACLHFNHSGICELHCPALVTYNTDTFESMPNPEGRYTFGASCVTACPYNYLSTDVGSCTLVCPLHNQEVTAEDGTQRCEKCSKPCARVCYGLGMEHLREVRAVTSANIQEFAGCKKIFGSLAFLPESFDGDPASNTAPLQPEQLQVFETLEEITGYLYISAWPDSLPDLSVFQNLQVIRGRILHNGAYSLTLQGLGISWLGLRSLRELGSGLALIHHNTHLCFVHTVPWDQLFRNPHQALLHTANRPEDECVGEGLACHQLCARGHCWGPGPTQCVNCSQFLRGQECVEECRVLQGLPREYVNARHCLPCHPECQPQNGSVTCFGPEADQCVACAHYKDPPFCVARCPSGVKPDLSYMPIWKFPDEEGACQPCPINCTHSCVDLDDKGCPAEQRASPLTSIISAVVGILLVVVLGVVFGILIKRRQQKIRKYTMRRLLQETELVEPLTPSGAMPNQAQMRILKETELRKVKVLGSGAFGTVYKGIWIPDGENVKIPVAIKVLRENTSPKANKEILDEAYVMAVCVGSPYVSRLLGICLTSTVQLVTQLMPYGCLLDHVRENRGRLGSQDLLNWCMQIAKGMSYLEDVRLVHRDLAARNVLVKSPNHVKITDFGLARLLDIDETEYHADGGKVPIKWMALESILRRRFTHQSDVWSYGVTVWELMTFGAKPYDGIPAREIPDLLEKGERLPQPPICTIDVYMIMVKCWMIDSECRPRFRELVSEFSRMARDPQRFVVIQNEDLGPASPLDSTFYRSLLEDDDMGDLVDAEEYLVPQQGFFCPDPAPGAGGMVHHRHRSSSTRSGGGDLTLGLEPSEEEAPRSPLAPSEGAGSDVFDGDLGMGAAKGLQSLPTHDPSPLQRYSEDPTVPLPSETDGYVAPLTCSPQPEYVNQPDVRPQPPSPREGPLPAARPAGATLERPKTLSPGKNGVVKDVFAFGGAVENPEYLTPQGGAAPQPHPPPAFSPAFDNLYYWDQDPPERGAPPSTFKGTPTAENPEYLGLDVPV
# Test Name: HER2 signaling (pHER2) in NCI-H1781 cells
# Particulars: 1.5 hr compound, 1% FBS
pEC50: −log10 of the molar value.

{"Compound": "COc1ccc(Oc2ccc(Nc3ncnc4sc5c(c34)C(C)CN(C(=O)C=CCN(C)C)C5)cc2C)cn1 (single isomer, unassigned) [Compound 159]", "Observable": "pEC50", "Reported Measurement": "6.46 to 7.00"}

# query: pEC50 of entry COc1ccc(Oc2ccc(Nc3ncnc4sc5c(c34)C(C)CN(C(=O)C=CCN(C)C)C5)cc2C)cn1 (single isomer, unassigned) [Compound 160]
> 7.00

Would you kindly share the measured pEC50 for COc1ccc(Oc2ccc(Nc3ncnc4sc5c(c34)CN(C(=O)/C=C/CN(C)C)C5)cc2C)cn1 ?
6.46 to 7.00

// pEC50 lookup, key: Cc1ccc(Oc2ccc(Nc3ncnc4sc5c(c34)C(C)CN(C(=O)/C=C/CN(C)C)C5)cc2C)cn1 (stereo not shown)
> 7.00

====

# EGFR WT (Homo sapiens, UniProt P00533): pIC50 values follow
# Sequence (P00533 25-1210): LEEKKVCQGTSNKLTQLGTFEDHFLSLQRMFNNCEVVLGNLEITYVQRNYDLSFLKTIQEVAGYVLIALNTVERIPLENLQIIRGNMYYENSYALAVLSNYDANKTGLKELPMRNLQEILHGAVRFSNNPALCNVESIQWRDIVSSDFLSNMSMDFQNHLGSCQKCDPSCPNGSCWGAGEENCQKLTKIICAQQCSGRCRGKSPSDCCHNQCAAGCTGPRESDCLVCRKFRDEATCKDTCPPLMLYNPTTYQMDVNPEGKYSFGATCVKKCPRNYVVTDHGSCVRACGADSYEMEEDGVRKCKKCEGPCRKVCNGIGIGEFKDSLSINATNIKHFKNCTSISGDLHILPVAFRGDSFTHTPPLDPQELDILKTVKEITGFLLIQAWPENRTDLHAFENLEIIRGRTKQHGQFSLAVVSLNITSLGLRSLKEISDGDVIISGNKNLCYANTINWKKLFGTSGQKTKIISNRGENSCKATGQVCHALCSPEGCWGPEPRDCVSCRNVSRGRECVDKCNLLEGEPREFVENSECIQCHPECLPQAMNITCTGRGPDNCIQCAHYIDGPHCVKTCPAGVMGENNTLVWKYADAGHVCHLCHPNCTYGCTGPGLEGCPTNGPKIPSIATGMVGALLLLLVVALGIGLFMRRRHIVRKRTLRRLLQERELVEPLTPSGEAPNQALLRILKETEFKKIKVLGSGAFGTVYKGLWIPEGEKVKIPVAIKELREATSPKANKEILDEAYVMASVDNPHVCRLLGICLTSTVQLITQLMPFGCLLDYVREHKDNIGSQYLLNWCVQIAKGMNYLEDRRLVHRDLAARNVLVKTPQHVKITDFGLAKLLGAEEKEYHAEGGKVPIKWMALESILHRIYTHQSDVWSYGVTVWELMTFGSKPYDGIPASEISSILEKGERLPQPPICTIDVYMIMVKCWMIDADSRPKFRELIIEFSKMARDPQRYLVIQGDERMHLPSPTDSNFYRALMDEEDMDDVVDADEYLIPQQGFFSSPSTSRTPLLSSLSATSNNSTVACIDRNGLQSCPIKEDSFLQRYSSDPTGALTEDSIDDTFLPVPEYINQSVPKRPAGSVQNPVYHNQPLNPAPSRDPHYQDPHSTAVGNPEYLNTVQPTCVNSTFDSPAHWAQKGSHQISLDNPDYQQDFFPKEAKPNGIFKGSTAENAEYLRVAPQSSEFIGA
pIC50: −log10 of the molar value.

Some entries whose results are on file:
{"Compound": "Cc1ccc(Oc2ccc(Nc3ncnc4sc5c(c34)CCN(C(=O)/C=C/CN3C4CCC3CC4)C5)cc2C)cn1", "Observable": "pIC50", "Reported Measurement": "5.00 to 6.00"}
{"Compound": "Cc1nc2cc(Oc3ccc(Nc4ncnc5sc6c(c45)CCN(C(=O)/C=C/CN(C)C)C6)cc3C)ccn2n1", "Observable": "pIC50", "Reported Measurement": "< 5.00"}
{"Compound": "Cc1ccc(Oc2ccc(Nc3ncnc4sc5c(c34)CCN(C(=O)/C=C/CN(C)C)CC5)cc2C)cn1", "Observable": "pIC50", "Reported Measurement": "< 5.00"}
{"Compound": "CNC(=O)CNC/C=C/C(=O)N1CCc2c(sc3ncnc(Nc4ccc(Oc5ccc(C)nc5)c(C)c4)c23)C1", "Observable": "pIC50", "Reported Measurement": "< 5.00"}

Give recorded pIC50 with EGFR WT (Homo sapiens, UniProt P00533) for the following compound: Cc1ccc(Oc2ccc(Nc3ncnc4sc5c(c34)CCN(C(=O)/C=C/CN3CCOCC3)C5)cc2C)cn1
< 5.00

Lab request: please report pIC50 under test system EGFR WT (Homo sapiens, UniProt P00533) for C#CCOCCN(C)C/C=C/C(=O)N1CCc2c(sc3ncnc(Nc4ccc(Oc5ccc(C)nc5)c(C)c4)c23)C1
< 5.00

Any idea what pIC50 came out for Cc1ccc(Oc2ccc(Nc3ncnc4sc5c(c34)C(C)CN(C(=O)C=CCN(C)C)C5)cc2C)cn1 (single isomer, unassigned) on EGFR WT (Homo sapiens, UniProt P00533)?
< 5.00

Hi! What's the reported pIC50 for Cc1ccc(Oc2ccc(Nc3ncnc4sc5c(c34)CCN(C(=O)/C=C/CN(C)C)CC5)cc2Cl)cn1 on EGFR WT (Homo sapiens, UniProt P00533)?
< 5.00
